Cited source for all entries: patent US11512053B2

system: full-length human PRMT8 isoform 1 (Homo sapiens, UniProt Q9NR22)
Sequence (Q9NR22 whole entry, canonical isoform): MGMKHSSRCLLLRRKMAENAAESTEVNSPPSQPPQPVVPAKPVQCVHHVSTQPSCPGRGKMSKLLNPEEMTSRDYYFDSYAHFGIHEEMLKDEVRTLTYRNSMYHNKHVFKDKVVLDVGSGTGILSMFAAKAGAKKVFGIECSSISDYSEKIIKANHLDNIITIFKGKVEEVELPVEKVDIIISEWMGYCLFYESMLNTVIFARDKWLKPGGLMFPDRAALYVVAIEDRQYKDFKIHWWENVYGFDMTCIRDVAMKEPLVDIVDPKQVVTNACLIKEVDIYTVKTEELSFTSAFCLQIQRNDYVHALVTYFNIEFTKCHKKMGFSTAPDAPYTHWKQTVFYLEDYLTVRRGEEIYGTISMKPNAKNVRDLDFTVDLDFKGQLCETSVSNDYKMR
test-description: PRMT8 Biochemical Assay (3H-SAM Flashplate, peptide substrate)
test-context: read-out: Biochemical IC50 PRMT8
Structures can show the parent of a compound that is named as a salt.
outcome-measure: IC50

Below are worked cases with known answers.
- CNCCN(C)Cc1c[nH]nc1[C@H]1CC[C@H](N(CC(C)C)C(=O)CCCOC)CC1 [Compound 249]: < 100 nM
- CNCCN(C)Cc1cn(C)nc1[C@H]1CC[C@]2(CC1)CC(C)(C)CO2 [Compound 206, hydrochloride]: < 100 nM
- CNCCN(C)Cc1c[nH]nc1C1CCC(C)(C)[C@H](C(=O)OC)C1 (stereo partly drawn) [Compound 256]: < 100 nM
- CNCCN(C)Cc1c[nH]nc1[C@H]1CC[C@H](N(CC(C)C)C(=O)CCOC)CC1 [Compound 234]: < 100 nM
- CN(CCN)Cc1c[nH]nc1CCc1ccccc1 [Compound 9]: 101 to 1000 nM

[ask] Record request: IC50 value, item CNCCN(C)Cc1c[nH]nc1[C@H]1CC[C@@]2(CCN(Cc3ccccc3)C2=O)CC1 [Compound 127]
[reply] < 100 nM

[ask] CCOCC1CC(c2n[nH]cc2CN(C)CCNC)CCC1(C)C (stereo not drawn) [Compound 202] ?
[reply] < 100 nM

[ask] Entry to check: CNCCN(C)Cc1c[nH]nc1C1CC(OCC(C)C)CC(OCC(C)C)C1 (stereo not drawn) [Compound 122]
[reply] 3010 to 10000 nM

[ask] // query: CNCCN(C)Cc1c[nH]nc1C1CCC2(CCCCC2)OC1 (stereo not drawn) [Compound 62]
[reply] < 100 nM

[ask] Repeat with CCOCC1CC(COCC)CC(c2n[nH]cc2CN(C)CCNC)C1 (stereo not drawn) [Compound 119]
[reply] 101 to 1000 nM

[ask] Try this compound too: CNCCN(C)Cc1c[nH]nc1C1CCC2(CC1)CCC(F)(F)CC2 [Compound 130]
[reply] < 100 nM

[ask] Another compound to check: CNCCN(C)Cc1c[nH]nc1[C@@H]1CCC(C)(C)[C@@H](C(=O)NCCCOC)C1 [Compound 271]
[reply] < 100 nM

====

system: full-length human PRMT1 isoform 1 (GST-tagged) (Homo sapiens, UniProt Q99873)
Sequence (Q99873 with tags, fused parts or gaps): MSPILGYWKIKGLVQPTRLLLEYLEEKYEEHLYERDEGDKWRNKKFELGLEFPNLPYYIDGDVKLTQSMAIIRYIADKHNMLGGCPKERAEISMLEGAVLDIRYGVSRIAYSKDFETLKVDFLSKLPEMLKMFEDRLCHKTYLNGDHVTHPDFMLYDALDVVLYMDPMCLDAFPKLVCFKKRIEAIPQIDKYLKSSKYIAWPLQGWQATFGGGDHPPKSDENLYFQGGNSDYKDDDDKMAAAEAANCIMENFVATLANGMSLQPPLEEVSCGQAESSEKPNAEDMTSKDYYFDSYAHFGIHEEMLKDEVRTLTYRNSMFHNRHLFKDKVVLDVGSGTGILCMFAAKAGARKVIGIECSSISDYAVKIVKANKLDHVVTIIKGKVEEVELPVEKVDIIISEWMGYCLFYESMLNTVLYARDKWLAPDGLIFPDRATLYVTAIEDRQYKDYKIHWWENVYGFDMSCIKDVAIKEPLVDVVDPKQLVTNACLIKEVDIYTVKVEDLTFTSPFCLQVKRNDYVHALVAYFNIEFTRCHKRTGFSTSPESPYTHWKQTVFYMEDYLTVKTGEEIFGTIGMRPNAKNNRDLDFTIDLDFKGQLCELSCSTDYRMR
test-description: PRMT1 Biochemical Assay (3H-SAM Flashplate, peptide substrate)
test-context: single experiment or average of multiple experiments
Where a name gives a salt, the structure may show the parent alone.
outcome-measure: IC50 (nM)

• CNCCN(C)Cc1c[nH]nc1C1CCC(C)(C)C(C(=O)NCCCOC)C1 (centres unmarked) = 31.3
• CNCCN(C)Cc1c[nH]nc1C1CCC(C)(C)[C@H](OCCCOC)C1 (some centres unmarked) = 12.4
• CNCCN(C)Cc1c[nH]nc1[C@H]1CC[C@H](N(CCCOC)C(=O)CCC(C)C)CC1 = 32.4
• CNCCN(C)Cc1cn(C)nc1[C@H]1CC[C@@]2(CC1)CC(C)(C)CO2 [Compound 205, hydrochloride] = 12.8
• CNCCN(C)Cc1c[nH]nc1C1CC(COC)CC(COC)C1 (centres unmarked) = 349

I: CNCCN(C)Cc1c[nH]nc1C1CCC(C)(C)[C@@H](C(=O)NCCC(C)C)C1 (some centres unmarked)
II: CNCCN(C)Cc1c[nH]nc1C1CCC2(CCCCC2)OC1 (centres unmarked)
III: CNCCN(C)Cc1c[nH]nc1[C@H]1CC[C@]2(CCN(Cc3ccccc3)C2=O)CC1
[ask] Order by IC50, ascending. Reply: labels, ordered per the request.
[reply] III, II, I
(III: 5.2 nM, II: 11.9 nM, I: 19.2 nM)

a: CNCCN(C)Cc1c[nH]nc1C1CCC(OC(C)C)CC1 (centres unmarked)
b: CCOC1CC2(CCC(c3n[nH]cc3CN(C)CCNC)CC2)CC1OCC (centres unmarked)
c: CNCCN(C)Cc1c[nH]nc1[C@H]1CC[C@@H](N(CC(C)C)C(=O)CCOc2ccccc2)CC1
[ask] Please list these in order of increasing IC50. Thank you! Labels, requested order.
[reply] c, a, b

a: CNCCN(C)Cc1c[nH]nc1[C@H]1CC[C@H](N(CCCOC)C(=O)CCOc2ccccc2)CC1
b: CNCCN(C)Cc1c[nH]nc1C1CCC2(CC1)OCCO2
[ask] Just curious, which one has the larger IC50 reading, a or b ? Selection: enter the item's label.
[reply] b

P: CNCCN(C)Cc1c[nH]nc1[C@H]1CC[C@@H](C(=O)NCCC(C)C)CC1
Q: CN(CCN)Cc1c[nH]nc1/C=C/c1ccc(F)cc1F
R: CCC(=O)N(CC1CCOCC1)[C@H]1CC[C@@H](c2n[nH]cc2CN(C)CCNC)CC1
S: CNCCN(C)Cc1c[nH]nc1C1CCC(C)(C)C(C(=O)NCC(C)C)C1 (centres unmarked)
T: CNCCN(C)Cc1c[nH]nc1C1CCC(C)CC1 (centres unmarked)
[ask] rank_up(items): orders items by reported IC50 in ascending numerical order. Response field: labels, in requested order.
[reply] T, Q, P, S, R
(T: 4.5 nM, Q: 10 nM, P: 18.4 nM, S: 34.4 nM, R: 61 nM)

====

system: full-length human PRMT1 isoform 1 (GST-tagged) (Homo sapiens)
test-description: PRMT1 Biochemical Assay (3H-SAM Flashplate, peptide substrate)
pIC50: −log10 of the molar value.
outcome-measure: pIC50

* CNCCN(C)Cc1c[nH]nc1C1CCC(=O)CC1 [Compound 194] | > 7.00
* CNCCN(C)Cc1c[nH]nc1C1CCC(C)(C)[C@H](OCC2CCOCC2)C1 (stereo partly drawn) [Compound 273] | > 7.00

Now examine the next entry.
[ask] Query: pIC50; subject: CCC(=O)N(CC1CCOCC1)[C@H]1CC[C@@H](c2n[nH]cc2CN(C)CCNC)CC1 [Compound 108]
[reply] > 7.00

====

system: full-length human PRMT8 isoform 1 (Homo sapiens)
test-description: PRMT8 Biochemical Assay (3H-SAM Flashplate, peptide substrate)
test-context: Biochemical IC50 PRMT8, single experiment or average of multiple experiments
outcome-measure: IC50 (nM)

A: CNCCN(C)Cc1c[nH]nc1[C@H]1CC[C@@]2(CC1)CC(C)(C)CO2 [Compound 133]
B: CNCCN(C)Cc1c[nH]nc1[C@H]1CC[C@]2(CC1)CC(C)(C)CO2 [Compound 134]
[ask] Compare A and B and name the one whose reported IC50 is smaller. Answer by quoting the chosen item's label.
[reply] A

====

system: full-length human PRMT6 (Flag- and His-tagged) (Homo sapiens, UniProt Q96LA8)
Sequence (Q96LA8 with tags, fused parts or gaps): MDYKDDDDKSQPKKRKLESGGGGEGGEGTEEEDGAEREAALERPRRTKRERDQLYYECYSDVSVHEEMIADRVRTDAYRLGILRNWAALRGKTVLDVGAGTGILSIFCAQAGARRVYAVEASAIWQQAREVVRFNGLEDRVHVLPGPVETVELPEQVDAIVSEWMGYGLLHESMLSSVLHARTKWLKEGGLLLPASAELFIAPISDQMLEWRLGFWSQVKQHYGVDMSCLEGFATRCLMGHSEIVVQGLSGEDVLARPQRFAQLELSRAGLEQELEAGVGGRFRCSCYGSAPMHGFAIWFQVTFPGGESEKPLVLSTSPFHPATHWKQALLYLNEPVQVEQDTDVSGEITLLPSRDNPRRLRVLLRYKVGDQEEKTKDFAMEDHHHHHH
test-description: PRMT6 Biochemical Assay (3H-SAM Flashplate, peptide substrate)
test-context: single experiment or average of multiple experiments; read-out: Biochemical IC50 PRMT6
outcome-measure: IC50 (nM)

// known answers, use as guide
• CNCCN(C)Cc1c[nH]nc1C1CCC2(CC1)NC(=O)N(C)C2=O (stereo not drawn) = 57.8
• CNCCN(C)Cc1c[nH]nc1[C@H]1CC[C@H](N(CC(C)C)C(=O)CCOC)CC1 = 84.1
• CNCCN(C)Cc1c[nH]nc1[C@H]1CC[C@]2(CCOC2)CC1 = 19.9
• CNCCN(C)Cc1c[nH]nc1[C@H]1CC[C@@H](N(CCOc2ccccc2)C(=O)CC(C)C)CC1 = 21.3

a: CNCCN(C)Cc1c[nH]nc1[C@H]1CC[C@H](N(CCOc2ccccc2)C(=O)CCCOC)CC1
b: CNCCN(C)Cc1c[nH]nc1[C@H]1CC[C@H](N(CC(C)C)C(=O)CCCOC)CC1 [Compound 249]
[ask] I would appreciate it if you could say which entry, a or b , has the lower IC50 value. The response must carry the label of the picked entry.
[reply] a
(a: 29.1 nM, b: 82.8 nM)

I: CNCCN(C)Cc1c[nH]nc1C1CCN(C(=O)C(C)C)CC1
II: CNCCN(C)Cc1c[nH]nc1[C@H]1CC[C@@H](C(=O)NCCC(C)C)CC1
[ask] Hi, I'm comparing two records. Which one has the lower IC50, I or II ? // caller expects the label of the chosen entry
[reply] I

====

system: full-length human PRMT8 isoform 1 (Homo sapiens, UniProt Q9NR22)
test-description: PRMT8 Biochemical Assay (3H-SAM Flashplate, peptide substrate)
test-context: single experiment or average of multiple experiments; read-out: Biochemical IC50 PRMT8
Structures can show the parent of a compound that is named as a salt.
outcome-measure: IC50 (nM)

A: CNCCN(C)Cc1c[nH]nc1[C@H]1CC[C@]2(CCN(Cc3ccc(OCCOC)cc3)C2=O)CC1
B: CNCCN(C)Cc1c[nH]nc1[C@H]1CC[C@@H](N(CCCOC)C(=O)CCC(C)C)CC1
[ask] Of the two listed items, which has the higher IC50? First: A Second: B // output: label of the selected item
[reply] B

A: CNCCN(C)Cc1cn(C)nc1[C@H]1CC[C@]2(CC1)CC(C)(C)CO2 [Compound 206, hydrochloride]
B: CN(CCN)Cc1n[nH]cc1C1CCC(C)(C)CC1
C: CNCCN(C)Cc1c[nH]nc1C#Cc1ccc(C(C)(C)C)cc1
D: CN(CCN)Cc1c[nH]nc1/C=C/c1cc(C(F)(F)F)cc(C(F)(F)F)c1
[ask] I would appreciate it if you could sort these 4 compounds by IC50, starting from the smallest number. A ranking is expressed here by listing the labels in the requested order.
[reply] A, C, B, D

P: CNCCN(C)Cc1c[nH]nc1C1CCC(OC(C)C)CC1 (stereo not drawn)
Q: CNCCN(C)Cc1c[nH]nc1[C@H]1CC[C@H](N(CC(C)C)C(=O)CCOc2ccccc2)CC1
R: CNCCN(C)Cc1c[nH]nc1[C@H]1CC[C@H](C(=O)N(CCCOC)CCC(C)C)CC1
S: CNCCN(C)Cc1c[nH]nc1[C@H]1CC[C@H](N(CCCOC)C(=O)CCC(C)C)CC1
T: CN(CCN)Cc1c[nH]nc1C1CCC2(CCCC2)CC1
[ask] Sort entries by IC50 from minimum to maximum value. // respond by listing labels in the order requested
[reply] T, Q, P, S, R
